# credit: ChEMBL document CHEMBL4725475

organism: Homo sapiens; assay: Selectivity index, ratio of inhibition for PI3Kdelta (unknown origin) to inhibition for PI3K p120 gamma (unknown origin) using phosphatidylinositol 4,5-bisphosphate as substrate in presence of ATP incubated for 60 mins by ADP-Glo assay
Assign Selectivity ratio to each entry below.
Numbers only.

Cc1cc(-c2cnc3[nH]cc(-c4cccnc4)c3c2)cc2c1C(=O)N(C(C)C1CC1)C2 (racemic) :: 112
Cc1cc(-c2cnc3[nH]cc(-c4cnn(C)c4)c3c2)cc2c1C(=O)N([C@@H](C)C1CC1)C2 :: 379
Cc1cc(-c2c[nH]c3ncc(-c4cc(C)c5c(c4)CN([C@@H](C)C4CC4)C5=O)cc23)ccc1CC(=O)O :: 397

Report Selectivity ratio for each item below.
1. Cc1cc(-c2cnc3[nH]cc(-c4ccncc4)c3c2)cc2c1C(=O)N([C@@H](C)C1CC1)C2
2. CNS(=O)(=O)c1cc(-c2cnc3[nH]cc(-c4cnn(C)c4)c3c2)cc2c1C(=O)N([C@@H](C)C1CC1)C2
3. C[C@@H](C1CC1)N1Cc2cc(-c3cnc4[nH]cc(-c5cnn(C)c5)c4c3)cc(C#N)c2C1=O
4. Cc1cc(-c2c[nH]c3ncc(-c4cc5c(c(C(F)(F)F)c4)C(=O)N([C@@H](C)C4CC4)C5)cc23)ccc1C(=O)O
5. Cc1cc(-c2cnc3[nH]cc(-c4ccc(C(=O)O)c(N5CCCC5)c4)c3c2)cc2c1C(=O)N([C@@H](C)C1CC1)C2
6. Cc1cc(-c2c[nH]c3ncc(-c4cc(C)c5c(c4)CN([C@@H](C)C4CC4)C5=O)cc23)ccc1C(=O)O
7. Cc1cc(-c2cnc3[nH]cc(-c4ccc(C5(C(=O)O)CC5)cc4)c3c2)cc2c1C(=O)N([C@@H](C)C1CC1)C2
8. Cc1cc(-c2cnc3[nH]cc(-c4ccn(C)c(=O)c4)c3c2)cc2c1C(=O)N([C@@H](C)C1CC1)C2

1. 290
2. 101
3. 244
4. 335
5. 49
6. 505
7. 1400
8. 128

Report Selectivity ratio for each item below.
1. C[C@@H](C1CC1)N1Cc2cc(-c3cnc4[nH]cc(-c5cnn(C)c5)c4c3)cc(Cl)c2C1=O
2. Cc1cc(-c2cnc3[nH]cc(-c4ccc(S(N)(=O)=O)cc4)c3c2)cc2c1C(=O)N([C@@H](C)C1CC1)C2

[533, 463]
